Data origin, for the record: patent US10975119B2

# assay_target: Caspase-7 (Homo sapiens, UniProt P55210)
# Construct: mixing the compounds with the respective active caspases; purchased BioVision K157-100
# Sequence (P55210 24-198 limits assumed): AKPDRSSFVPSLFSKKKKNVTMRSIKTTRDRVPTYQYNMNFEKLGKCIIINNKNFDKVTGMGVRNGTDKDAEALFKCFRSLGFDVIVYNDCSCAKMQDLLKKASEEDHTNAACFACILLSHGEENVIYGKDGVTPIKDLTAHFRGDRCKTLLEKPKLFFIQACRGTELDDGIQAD
# Sequence (P55210 207-303 limits assumed): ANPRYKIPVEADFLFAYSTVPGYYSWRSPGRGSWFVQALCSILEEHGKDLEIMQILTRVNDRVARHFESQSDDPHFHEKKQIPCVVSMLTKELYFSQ
# protocol_details: Caspase-7 inhibitor screening assay (BioVision kit, DEVD-AFC)
# Format: biochemical
# experimental_conditions: read-out: IC50 Casp7
pIC50: −log10 of the molar value.
Assignment: determine reported pIC50 for the given molecules.

molecule | value
CS(=O)(=O)/C=C/[C@H](CC(=O)O)NC(=O)[C@H]1CCC(=O)N1 [Compound 24] | < 4.00
CC(C)(C)[C@@H](NC(=O)[C@H](CC(=O)O)NC(=O)OCc1ccccc1)C(=O)N1CC[C@@H]1C(=O)N[C@H](/C=C/S(C)(=O)=O)CC(=O)O [Compound 32] | 6.26

Kindly review the next molecule as well.
Form field pIC50, entry CC(C)[C@H](NC(=O)OCc1ccccc1)C(=O)N[C@H](/C=C/S(C)(=O)=O)CC(=O)O [Compound 3, Z-Val-Asp methyl vinyl sulfone] : < 4.00
